system: Phosphorylation of STAT6 in human PBMC (CD19+ B cells); assay: Phosphorylated STAT6 (pSTAT6) flow cytometry assay in human PBMC, IL-4 stimulated; type: cell-based; conditions: compound 1 hour, 1 ng/ml IL-4 for 15 minutes, read-out: STAT6 IL4 pSTAT6 assay in PBMC: Average IC50
pIC50: −log10 of the molar value.
METRIC: pIC50

// below: answered compounds
COMPOUND	EXPERIMENTAL_TARGET	pIC50
CN(C)C(=O)c1cc2ccc(C3=CCCN(C(=O)C4CS(=O)(=O)C4)C3)cc2[nH]1 [Example I-163]	Phosphorylation of STAT6 in human PBMC (CD19+ B cells)	< 4.00
CN(C)C(=O)c1cc2cc(C3=CCCN(C(=O)CC4CCOCC4)C3)ccc2o1 [Example I-255]	Phosphorylation of STAT6 in human PBMC (CD19+ B cells)	< 4.00

I have this compound here, CN(C)C(=O)c1cc2cc(C3=CCCN(C(=O)Cc4ncccn4)C3)ccc2o1 [Example I-249] , and I need its recorded pIC50. < 4.00

Please look up its pIC50: COC(=O)CCC#Cc1cc(C2=CCCN(C(=O)C3Cc4ccccc4CN3C=O)C2)cc2cc(C(=O)N(C)C)oc12 (stereo not shown) [Example I-184] 4.00 to 5.00

###

test system: Phosphorylation of STAT6 in human PBMC (CD19+ B cells); assay: Phosphorylated STAT6 (pSTAT6) flow cytometry assay in human PBMC, IL-4 stimulated; assay type: cell-based; details: compound 1 hour, 1 ng/ml IL-4 for 15 minutes, read-out: STAT6 IL4 pSTAT6 assay in PBMC: Average IC50
pIC50: −log10 of the molar value.
# reported pIC50; entries follow

COMPOUND	EXPERIMENTAL_TARGET	pIC50
CN(C)C(=O)c1cc2cc(C3=CCCN(C(=O)CCn4ccc5ccccc54)C3)ccc2o1	Phosphorylation of STAT6 in human PBMC (CD19+ B cells)	< 4.00

Reported pIC50, compound CN(C)C(=O)c1cc2ccc(C3=CCCN(C(=O)CCn4ccnn4)C3)cn2n1 : ____ < 4.00

# get_value(readout='pIC50', item= CN(C)C(=O)c1cc2ccc(C3=CCCN(C(=O)CN4C(=O)COc5ccccc54)C3)cc2[nH]1 ) 4.00 to 5.00

What value of pIC50 has been recorded for this entry: CN(C)C(=O)c1cc2ccc(C3=CCCN(C(=O)[C@@H]4C[C@H]4c4ccc(Br)cc4)C3)cc2[nH]1 4.00 to 5.00

Recorded pIC50 of CN(C)C(=O)c1cc2cc(C3=CCCN(C(=O)CCc4cccc5ccccc45)C3)ccc2o1 , please. < 4.00

What does the data say about its pIC50? Entry: CN(C)C(=O)c1cc2ccc(C3=CCCN(C(=O)C(O)Cc4ccccc4)C3)cc2[nH]1 (stereo not drawn) [Example I-51] 4.00 to 5.00

Which value of pIC50 has been reported for CN(C)C(=O)c1cc2ccc(C3=CCCN(C(=O)CCc4nn[nH]n4)C3)cc2[nH]1 in the records? 4.00 to 5.00

###

system: Phosphorylation of STAT6 in human PBMC (CD19+ B cells); experiment: Phosphorylated STAT6 (pSTAT6) flow cytometry assay in human PBMC, IL-4 stimulated; assay type: cell-based; details: compound 1 hour, 1 ng/ml IL-4 for 15 minutes, read-out: STAT6 IL4 pSTAT6 assay in PBMC: Average IC50
METRIC: IC50

Worked examples follow.
COMPOUND	EXPERIMENTAL_TARGET	VALUE_MEASURED
CN(C)C(=O)c1cc2ccc(C3=CCCN(C(=O)C4(O)CC4)C3)cc2[nH]1	Phosphorylation of STAT6 in human PBMC (CD19+ B cells)	> 100 µM
CN(C)C(=O)c1cc2ccc(C3=CCCN(C(=O)Cc4cccc(OCc5ccccc5)c4)C3)cc2[nH]1	Phosphorylation of STAT6 in human PBMC (CD19+ B cells)	0.1 to 1 µM
CN(C)C(=O)c1cc2ccc(C3=CCCN(C(=O)CN(C)S(=O)(=O)c4ccccc4)C3)cc2[nH]1	Phosphorylation of STAT6 in human PBMC (CD19+ B cells)	10 to 100 µM
CN(C)C(=O)c1cc2ccc(C3=CCCN(C(=O)C4CC(=O)N4)C3)cc2[nH]1 (stereo not shown)	Phosphorylation of STAT6 in human PBMC (CD19+ B cells)	10 to 100 µM
CN(C)C(=O)c1cc2cc(C3=CCCN(C(=O)C4c5ccccc5CCN4C)C3)ccc2o1 (stereo not shown)	Phosphorylation of STAT6 in human PBMC (CD19+ B cells)	> 100 µM

Phosphorylation of STAT6 in human PBMC (CD19+ B cells) / IC50 / CN(C)C(=O)c1cc2ccc(C3=CCCN(C(=O)CCn4ncc5cc(Cl)ncc54)C3)cc2[nH]1 : value? > 100 µM

Entry CN(C)C(=O)c1cc2ccc(C3=CCCN(C(=O)[C@@H](N)Cc4cccc(F)c4)C3)cc2[nH]1 , system Phosphorylation of STAT6 in human PBMC (CD19+ B cells): what IC50 was measured? > 100 µM
